The entries below come with measured GI50 values attached.
tested on: HT-29; test: NCI tumour cell line growth inhibition, 48 h
The source made the active and inactive calls. No stated cut-off is given here; in the data, active = GI50 up to about 1.1 µM and inactive = higher. Non-standard residues stand in square brackets, D forms with d. Residues, ends and D or L forms follow the SMILES beside them. ξ: configuration not given here. *: point of attachment. NMeF = CN[C@@H](Cc1ccccc1)C(=O)O; NMeV = CN[C@H](C(=O)O)C(C)C; ξNMeV = CNC(C(=O)O)C(C)C; Boc = CC(C)(C)OC(=O)*; OBn = c1ccc(CO*)cc1
measurement kind: GI50

• COC(=O)C1=C(O)C(C(=O)OC)[C@]2(O)[C@H](C(=O)OC)[C@H]1C[C@@H](c1ccccc1OC)[C@H]2C(=O)OC (stereo partly drawn) = 4.82 µM (inactive)
• CC(C)C(C(=O)N(C)[C@H](C(=O)N1CCC[C@H]1C(=O)N(C)[C@@H](Cc1ccccc1)C(=O)OCc1ccccc1)C(C)C)N(C)C(=O)[C@@H](NC(=O)OC(C)(C)C)C(C)C (stereo partly drawn) (Boc-V[ξNMeV][NMeV]P[NMeF]-OBn) = 14.2 µM (inactive)
• CCOC(=O)C1(CC)CCCCC(=O)N1 (stereo not drawn) = > 100 µM (inactive)
• O=C(O)/C=N/NC(=S)NC1CCCCC1 = > 100 µM (inactive)
• COC1CC(OC2C(C)OC(OC3C(C)OC(OC4C(C)OC(O[C@H]5CC[C@@]6(C)C(=CC[C@]7(O)[C@@H]6C[C@@H](OC(=O)/C=C/c6ccccc6)[C@@]6(C)[C@]7(O)CC[C@@]6(O)C(C)=O)C5)CC4OC)CC3OC)CC2OC)OC(C)C1O (stereo partly drawn) = > 12.5 µM (inactive)
• CC(C)(C)[Si](C)(C)OCCCCC1CC2(S(=O)(=O)C3=CC=C=C=C3)ON1CC2S(=O)(=O)c1ccccc1 (stereo not drawn) = > 100 µM (inactive)
• Cc1cc(=O)oc2cc(O)ccc12 = > 100 µM (inactive)
• CCCCCCN(CCCCCC)C1=CC(=O)C(=O)c2ccccc21 = 15.1 µM (inactive)
• O=C1C(Cl)=C(Nc2ccc(S(=O)(=O)Nc3ccccn3)cc2)C(=O)c2ccccc21 = 7.5 µM (inactive)
• CCCCn1cnc2c(c(CC#N)nn2-c2ccccc2)c1=N = 33.4 µM (inactive)
• N#C/C(=C/c1ccsc1)C(=O)c1ccccc1 = > 100 µM (inactive)
• CCC(=O)O[C@@H]1C2C(OC(C)=O)C34COC(C)([C@@H]3C3C(C[C@]3(C)OC(C)=O)[C@@H](OC(=O)c3ccccc3)C4=O)[C@H](OC(C)=O)[C@@]2(OC(C)=O)C[C@@H]1C (stereo partly drawn) = > 100 µM (inactive)
• NC1C/C(=N\O)c2c(I)sc(I)c21 (stereo not drawn) = 19.2 µM (inactive)
• O=C(C(=O)n1ccc2ccccc21)n1ccc2ccccc21 = > 100 µM (inactive)
• COc1cc2c(c(OC)c1OC)-c1ccc(SC)c(=O)cc1[C@@H](O)CC2 = 0.000294 µM (active)
• Cc1c(C)n(COCCO)c2ncnc(N)c12 = > 100 µM (inactive)
• NC1c2c(Cl)sc(Cl)c2C(=O)C1O (stereo not drawn) = 19.7 µM (inactive)
• O=C(NCCN1C(=O)CN=C(c2ccc(Cl)cc2)c2cc(Cl)ccc21)OCc1ccccc1 = 11.8 µM (inactive)
